meta.source: PubChem BioAssay (NCI)

System: KM12 colon
measurementDescription: NCI tumour cell line growth inhibition, 48 h

molecule	experimentalTarget	TGI
CCCC1C(=O)C(CC)Cc2c(OC)ccc(OC)c21 (stereo not drawn)	KM12 colon	> 100 µM
CCOC(=O)c1cc(=O)oc2c1N(C)c1ncccc1N2	KM12 colon	> 100 µM
COC1CC2C=CC3C4OC2(/C(C)=C/C(C)C(C(C)O)OC1=O)C3C(O)C(C)C4OC(=O)c1ccc[nH]1 (stereo not drawn)	KM12 colon	> 100 µM
Cc1[nH]c2ccccc2c1C1CC(=O)NC1=O (stereo not drawn)	KM12 colon	> 100 µM
CN(C)c1ccc2cc(-c3cc4c(oc3=O)-c3ccccc3OC4O)c(=O)oc2c1 (stereo not drawn)	KM12 colon	16.2 µM
C=Cc1cc2c(cc1O)CC[C@@H]1[C@@H]2CC[C@]2(C)[C@@H](O)CC[C@@H]12	KM12 colon	14.9 µM
O=c1ccccc(-c2ccc(-c3ccco3)cc2)c1O	KM12 colon	17.5 µM
NC12CC3CC4C1CC1CC2C(C3)C4(N)C1	KM12 colon	> 100 µM
CC(C)Cc1ccc(C(C)/C=C2\CCC(CN3CCCC3)C2=O)cc1 (stereo not drawn)	KM12 colon	7.74 µM
C/C(=N\O)c1cccc(Nc2nc3ccccc3c3occc23)c1	KM12 colon	27.3 µM
O=C1/C(=C/c2ccccc2)CN(CCC(=O)N2C/C(=C\c3ccccc3)C(=O)/C(=C/c3ccccc3)C2)C/C1=C\c1ccccc1	KM12 colon	7.48 µM
O=C1/C=C/[C@@H](O)[C@@H]2C[C@@H](O)C[C@H]2/C=C/CCC[C@H](CO)O1	KM12 colon	> 100 µM
C[C@]12CC(C#N)C(=O)C(O)=C1CC[C@@H]1C2CC[C@@]2(C)C1CC[C@@H]2O (stereo partly drawn)	KM12 colon	> 100 µM
COc1ccc(-c2nc(N)c3ncn(C4OC(CO)C(O)C4O)c3n2)cc1 (stereo not drawn)	KM12 colon	> 100 µM
O=C(COc1ccc(Cl)cc1)N1N=C(c2ccc([N+](=O)[O-])o2)CC1(O)c1ccccc1 (stereo not drawn)	KM12 colon	27.7 µM
CSc1nncc2[nH]cnc12	KM12 colon	> 100 µM
CCC(c1ccc(OC)cc1)C(CC)c1ccc(O)c(CN2CCCC2)c1 (stereo not drawn)	KM12 colon	15.3 µM
CCN(CC)CCOC(=O)/C(=C/c1ccc(OC)cc1)c1cc(OC)c(OC)c(OC)c1	KM12 colon	16 µM
CCC1CCCCN1C(=S)N/N=C(\C)c1ccccn1 (stereo not drawn)	KM12 colon	1.52 µM
NCCCc1c(-c2ccccc2)nc(N)[nH]c1=O	KM12 colon	> 100 µM
COc1cc2c3c(n(Cc4ccccc4)c(=O)c2cc1OC)-c1ccccc1C3=O	KM12 colon	> 100 µM
O=C(N/N=C\c1ccc([N+](=O)[O-])cc1)Nc1cccc2ccccc12	KM12 colon	> 100 µM
CCN(CC)C(=O)CNC(=O)OC(C)(C)C	KM12 colon	> 100 µM
COc1ccc(C2SCC(=O)N2NC(=O)C(C)Oc2ccccc2Cl)cc1 (stereo not drawn)	KM12 colon	> 100 µM
O=C(Nc1ccc(Cl)cc1)c1cc2cc(F)ccc2cc1O	KM12 colon	> 100 µM
COc1cc([C@@H]2c3cc4c(cc3[C@H](OC(C)=O)[C@H]3COC(=O)[C@H]23)OCO4)cc(OC)c1OC	KM12 colon	> 100 µM
Cc1ccc2c(N/N=C\c3ccco3)cc(C)nc2n1	KM12 colon	17.9 µM
COc1cc2ccc(/C(C)=N/OC(C)=O)cc2cc1OC	KM12 colon	> 100 µM

###

Reported TGI values for the following molecules.
Tested on: OVCAR-5 ovarian
measurementDescription: NCI tumour cell line growth inhibition, 48 h
Where a SMILES comes first, the peptide text is derived from it. The star is where a group is joined. Boc = CC(C)(C)OC(=O)*

molecule	experimentalTarget	TGI
CCCC#CC(O)(C(=O)OC1CCN(C)CC1)C1CCCCC1 (centres undefined)	OVCAR-5 ovarian	> 100 µM
O=C(N/N=C\c1ccc([N+](=O)[O-])cc1)c1ccccc1Nc1ccccc1C(=O)N/N=C/c1ccc([N+](=O)[O-])cc1	OVCAR-5 ovarian	> 100 µM
O=CC1OC(=O)c2cc(O)c(O)c(O)c2-c2c(cc(O)c(O)c2O)C(=O)OC1C(O)C(O)CO (centres undefined)	OVCAR-5 ovarian	> 100 µM
COc1cc(C2SCC(=O)N2c2ccc(Cl)cc2)cc(I)c1O (centres undefined)	OVCAR-5 ovarian	> 100 µM
CCOC(=O)c1c(C)[nH]c(/C=C2\N=C(c3ccc[nH]3)C=C2OC)c1C	OVCAR-5 ovarian	1.51 µM
CC(=N/NC(=S)N1CCCCC1)/C(C)=N\NC(=S)N1CCCCC1	OVCAR-5 ovarian	3.82 µM
N#C[C@@]12CCCC(=O)[C@@H]1[C@H]1CCC[C@H]12	OVCAR-5 ovarian	25.7 µM
O=S(=O)(O)c1ccc2c(N=Nc3ccccc3Cl)c(O)ccc2c1	OVCAR-5 ovarian	> 100 µM
N=C1C(c2nc3ccccc3s2)=C(O)CN1c1ccc(Cl)cc1Cl	OVCAR-5 ovarian	> 100 µM
CCOC(=O)/C=C(\N=P(c1ccccc1)(c1ccccc1)c1ccccc1)C(F)(F)C(F)(F)C(F)(F)C(F)(F)C(F)(F)F	OVCAR-5 ovarian	> 100 µM
CCOCC(NC(=O)C(CC(C)C)NC(=O)OC(C)(C)C)C(N)=O (stereo not drawn) (Boc-Leu-Ser(Et)-NH2; configuration not given here)	OVCAR-5 ovarian	> 100 µM
COc1ccc(-n2c3c(c4c(CN(C)C)c(O)ccc42)C(=O)c2ccccc2C3=O)cc1	OVCAR-5 ovarian	17.1 µM
COc1cc2c(cc1OC)C(Cc1ccccc1CCCl)=NCC2	OVCAR-5 ovarian	> 100 µM
O=C(CN1CCOCC1)CC(O)(C(F)(F)F)C(F)(F)F	OVCAR-5 ovarian	> 100 µM
CCn1c(-c2ccc(C)cc2)cs/c1=N\C(P(=O)(O)O)P(=O)(O)O	OVCAR-5 ovarian	> 100 µM
Cc1cccc2c1O/C(=C\c1ncc([N+](=O)[O-])n1C)C2=O	OVCAR-5 ovarian	4.45 µM
NCC(=O)N1CCN(c2nc(N3CCCC3)c3nc(Cl)c(NCc4ccccc4)nc3n2)CC1	OVCAR-5 ovarian	9.87 µM
OCCN=C1c2ccccc2C2C(c3ccccc31)C1c3ccccc3C(=NCCO)c3ccccc3C21 (centres undefined)	OVCAR-5 ovarian	60.7 µM
O=C(OCC1CCCN2CCCCC12)c1ccncc1 (centres undefined)	OVCAR-5 ovarian	> 100 µM
Cc1ccc(NC(=O)CC/C(CC(=O)c2ccc(Cl)cc2)=N\NC(=O)C(=O)NN)cc1C	OVCAR-5 ovarian	> 100 µM
Clc1ccc2c(NCCNc3ccnc4cc(Cl)ccc34)ccnc2c1	OVCAR-5 ovarian	33.3 µM
N#C/C(=C/C=C/c1ccccc1)S(=O)c1ccccc1 (centres undefined)	OVCAR-5 ovarian	1.07 µM
COc1ccccc1N=N/C(=N/NC(=O)c1ccc(C)cc1)c1ccc(N(CCC#N)CCC#N)cc1OC	OVCAR-5 ovarian	> 100 µM
C[C@]12CC(C#N)C(=O)C(O)=C1CC[C@@H]1C2CC[C@@]2(C)C1CC[C@@H]2O (some centres undefined)	OVCAR-5 ovarian	> 100 µM
Cc1ccc(S(=O)(=O)/N=C(\[O-])C2=C(c3ccccc3)NN(C)c3nc4cccc[n+]4nc32)cc1	OVCAR-5 ovarian	> 100 µM
CNC(=O)c1cncc(/C=C/c2c(C)cccc2C)c1	OVCAR-5 ovarian	> 25 µM
CN(C)c1ccc2cc(-c3cc4c(oc3=O)-c3ccccc3OC4O)c(=O)oc2c1 (centres undefined)	OVCAR-5 ovarian	12.8 µM
O=S(=O)(NCCCNc1cc(-c2cn(-c3ccccc3)nc2-c2cccc(O)c2)ccn1)c1cccc2ccccc12	OVCAR-5 ovarian	> 100 µM
O=c1ccccc(-c2ccc(-c3ccco3)cc2)c1O	OVCAR-5 ovarian	42 µM

###

Test system: RXF-631 renal
measurementDescription: NCI tumour cell line growth inhibition, 48 h
Reported TGI values for the following molecules.

molecule	TGI
O=C(c1cc2c(C(F)(F)F)onc2c2ccccc12)C(F)(F)F	80.1 µM
N#CC(C(=O)CCC(=O)Nc1ccc(Cl)cc1)c1ccccc1Cl (stereo not drawn)	> 100 µM
CCOC(=O)CNC1C(NC(C)=O)C(OC)OC2COC(c3ccccc3)OC21 (stereo not drawn)	> 100 µM

###

Test system: HT29 colon
measurementDescription: NCI tumour cell line growth inhibition, 48 h
Reported TGI values for the following compounds.
assayMetric: TGI

compound	result
O=C1/C(=C/c2ccccc2)CN(CCC(=O)N2C/C(=C\c3ccccc3)C(=O)/C(=C/c3ccccc3)C2)C/C1=C\c1ccccc1	> 55.9 µM
CCCC#CC(O)(C(=O)OC1CCN(C)CC1)C1CCCCC1 (centres undefined)	> 100 µM
COC(OC)(c1ccccc1)C(I)I	34.9 µM
O=C1OC[C@@H]2Cc3c([nH]c4ccccc34)[C@@H](c3cc(O)c(O)c(O)c3)N12	> 100 µM
O=C(O)CN(c1ccccc1)S(=O)(=O)c1ccc(Cl)cc1	> 100 µM
CCC(O)(c1ccc(OC)cc1)C(c1ccc(OCc2ccccc2)cc1)c1ccc(OCc2ccccc2)cc1 (centres undefined)	> 100 µM
CC1=C(C(=O)NCC(C)O)CC(C(=O)NCC(C)O)=C(C)N1 (centres undefined)	> 100 µM
O=S1c2ccccc2N=C(c2ccc(Cl)cc2)CC1c1cccs1 (centres undefined)	49.4 µM
COC(=O)c1ccc(CCc2cc(O)c(Br)cc2O)cc1	32.8 µM
Clc1ccc2c(NCCNc3ccnc4cc(Cl)ccc34)ccnc2c1	29.5 µM
N#C/C(=C/C=C/c1ccccc1)S(=O)c1ccccc1 (centres undefined)	2.17 µM
CC([C@H]1CCC2C3CCC4CC5(CC[C@]4(C)C3CC[C@@]21C)c1ccccc1C(=O)N5C)N(C)C (some centres undefined)	68.2 µM
CCn1c(-c2ccc(C)cc2)cs/c1=N\C(P(=O)(O)O)P(=O)(O)O	> 100 µM
Cc1ccc2cccc3c2c1CC1(C3=O)S(=O)(=O)OCCOS1(=O)=O	> 100 µM
CC1(C)N=C(/C=N/O)C(C)(C)N1O	> 100 µM
COc1cc([C@@H]2c3cc4c(cc3[C@H](OC(C)=O)[C@H]3COC(=O)[C@H]23)OCO4)cc(OC)c1OC	17.9 µM
CC[C@@]1(O)C(=O)OCc2c1cc1n(c2=O)Cc2c-1nc1ccccc1c2/C=N\NC(=O)C(N)Cc1cnc[nH]1 (some centres undefined)	> 57.3 µM
CC1=C2C(=O)C(C)(C)C=C2C(=O)[C@](C)(O)C12CC2	> 1 µM
CC1(C)C[C@H](O)[C@H](O)[C@]23C(=O)O[C@H](O)[C@H]2C(C=O)=CC[C@@H]13	> 100 µM
CC(=O)O[C@H]1C(=O)[C@@]2(C)[C@H]([C@H](OC(=O)c3ccccc3)[C@]3(O)C[C@H](OC(=O)[C@H](O)[C@@H](NC(=O)CC(C)C)c4ccccc4)C(C)=C1C3(C)C)[C@]1(OC(C)=O)CO[C@@H]1C[C@@H]2O	0.0296 µM
O=C(N/N=C\c1ccc([N+](=O)[O-])cc1)Nc1cccc2ccccc12	> 100 µM
NC(Cc1c[nH]c2ccccc12)C(=O)O (centres undefined)	> 300 µM
O=C(COc1ccc(Cl)cc1)N1N=C(c2ccc([N+](=O)[O-])o2)CC1(O)c1ccccc1 (centres undefined)	16.3 µM
COC1OC(CBr)C(OC(c2ccccc2)(c2ccccc2)c2ccccc2)C(OC(c2ccccc2)(c2ccccc2)c2ccccc2)C1OC(c1ccccc1)(c1ccccc1)c1ccccc1 (centres undefined)	> 100 µM
CCN(CC)CCOC(=O)/C(=C/c1ccc(OC)cc1)c1cc(OC)c(OC)c(OC)c1	18 µM
ClC1(c2ccccc2)c2ccc(Br)cc2-c2cc(Br)ccc21	26 µM
C=Cc1cc2c(cc1O)CC[C@@H]1[C@@H]2CC[C@]2(C)[C@@H](O)CC[C@@H]12	29.5 µM
CC(=O)O[C@H]1CCC2[C@@H]3CCC4Nc5c(cnn5-c5ccccc5)C[C@]4(C)C3CC[C@@]21C (some centres undefined)	34.9 µM
CC(Oc1ccc(OCC2CCCCC2)cc1)C(=O)O (centres undefined)	> 100 µM
O=CC1OC(=O)c2cc(O)c(O)c(O)c2-c2c(cc(O)c(O)c2O)C(=O)OC1C(O)C(O)CO (centres undefined)	46.8 µM
Cc1ccc(S(=O)(=O)/N=C(\[O-])C2=C(c3ccccc3)NN(C)c3nc4cccc[n+]4nc32)cc1	> 100 µM
NCCCn1c2c(c3cc4c(cc3c1=O)OCO4)C(=O)c1ccccc1-2	> 100 µM
CC(C)c1cccc(C(C)C)c1N=C(N)C#N	> 100 µM
O=C1/C(=C/c2ccccc2Br)COc2ccc(O)c(O)c21	10.4 µM
